ASSAYED TARGET: human FOXO1 (constitutively active form Thr24Ala, Ser256Ala, Ser319Ala) (Homo sapiens, UniProt Q12778, S256A/S319A/T24A)
Sequence (Q12778 whole entry T24A/S256A/S319A): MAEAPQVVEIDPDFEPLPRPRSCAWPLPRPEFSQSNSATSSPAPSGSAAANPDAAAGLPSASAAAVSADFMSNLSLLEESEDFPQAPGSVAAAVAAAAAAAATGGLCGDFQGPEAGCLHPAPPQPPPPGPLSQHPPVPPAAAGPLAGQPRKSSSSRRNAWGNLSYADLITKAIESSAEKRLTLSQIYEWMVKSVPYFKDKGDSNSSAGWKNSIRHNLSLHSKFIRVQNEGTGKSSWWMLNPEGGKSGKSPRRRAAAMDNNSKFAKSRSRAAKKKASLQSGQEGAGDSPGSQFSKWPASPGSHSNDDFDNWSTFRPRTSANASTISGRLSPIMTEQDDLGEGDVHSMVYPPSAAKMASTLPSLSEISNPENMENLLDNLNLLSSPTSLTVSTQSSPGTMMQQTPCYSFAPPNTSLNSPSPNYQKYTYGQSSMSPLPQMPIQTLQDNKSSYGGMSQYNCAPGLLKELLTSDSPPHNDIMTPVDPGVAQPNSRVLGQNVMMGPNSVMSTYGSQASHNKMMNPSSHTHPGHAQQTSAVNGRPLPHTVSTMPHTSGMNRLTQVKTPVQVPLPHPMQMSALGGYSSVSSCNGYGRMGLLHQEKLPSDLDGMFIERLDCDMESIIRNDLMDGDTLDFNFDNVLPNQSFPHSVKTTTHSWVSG
TEST DETAILS: FOXO1 inhibitor activity assay: cell-based transcriptional (luciferase) reporter assay in HEK293 cells
ASSAY SETUP: HEK293 cells transfected with insulin response element firefly luciferase reporter, FOXO1 and Renilla luciferase; 10-point dose response 50 μM to 2.5 nM; 24 hours
IC50 values for the molecules below.
READOUT KIND: IC50

CCOC(=O)[C@@H]1CCCN1c1ccc(C(=O)Nc2cc(-c3nc4ccccc4[nH]3)[nH]n2)cn1; > 1000 nM
Cn1nc(NC(=O)c2ccc(N3C4CCC3COC4)nc2)cc1-c1nc2ccccc2[nH]1; < 100 nM
Cn1nc(NC(=O)c2ccc(N3CCOCC3CO)nc2)cc1-c1nc2ccccc2[nH]1 (stereo not shown); 100 to 300 nM
Cn1nc(NC(=O)c2ccc(N3CCN(CCO)CC3)nc2)cc1-c1nc2cc(F)ccc2[nH]1; 100 to 300 nM
Cn1nc(NC(=O)c2ccc(N3CCN(CC(C)(C)O)CC3)cc2)cc1-c1nc2ccccc2[nH]1; < 100 nM
O=C(O)COc1ccc(C(=O)Nc2cc(-c3nc4ccccc4[nH]3)[nH]n2)cc1Cl; > 1000 nM
Cn1nc(NC(=O)c2cnc(N3CCC(N4CCOCC4)CC3)cn2)cc1-c1nc2ccccc2[nH]1; 300 to 1000 nM
